Attribution: the Deep4Chem optical property database

# method: solvent given as SMILES
# experimental-conditions: in CCCCCC

>  <compound-smiles>
CCN(CC)c1cccc2c1ccc1c(=O)oc(-c3ccc(C(F)(F)F)cc3)cc12

>  <display-unit>
nm

>  <absorption maximum>
388

$$$$
>  <compound-smiles>
O=S1(=O)C2=C(c3ccc(N(c4ccccc4)c4ccccc4)cc31)C1(C3=C(c4ccccc41)S(=O)(=O)c1cc(N(c4ccccc4)c4ccccc4)ccc13)c1ccccc12

>  <display-unit>
nm

>  <absorption maximum>
434

$$$$
>  <compound-smiles>
N#Cc1ccc(-n2cccc2)cc1

>  <display-unit>
nm

>  <absorption maximum>
287

$$$$
>  <compound-smiles>
CC(C)(C)c1ccc2c(c1)sc1[n+]2[B-](F)(F)n2c(c3cccc4c(Br)ccc2c43)=C1C#N

>  <display-unit>
nm

>  <absorption maximum>
542

$$$$
>  <compound-smiles>
CC1=C2C=CC=[N+]2[B-](F)(F)n2cccc21

>  <display-unit>
nm

>  <absorption maximum>
500

$$$$
>  <compound-smiles>
Nc1ccc(C#Cc2ccc3ccc4ccc(C#Cc5ccc(N)cc5)c5ccc2c3c45)cc1

>  <display-unit>
nm

>  <absorption maximum>
421

$$$$

====

# method: solvent given as SMILES
# experimental-conditions: in ClCCl
# maps each entry to its absorption maximum

>  <molecule>
CCN(CC)c1ccc2cc(-c3nc4ccccc4n3-c3ccccc3)c(=O)oc2c1

>  <display-unit>
nm

>  <absorption maximum>
410

$$$$
>  <molecule>
COC(=O)CNC(=O)c1nc2c(N(C)C)nc(N(C)C)nc2n1Cc1ccccc1

>  <display-unit>
nm

>  <absorption maximum>
343

$$$$
>  <molecule>
CCCCCCCCCCCCCCCCn1c(-c2cc(-c3nc4ccc(C)cc4n3CCCCCCCCCCCCCCCC)cc(-c3nc4ccc(C)cc4n3CCCCCCCCCCCCCCCC)c2)nc2ccc(C)cc21

>  <display-unit>
nm

>  <absorption maximum>
306

$$$$
>  <molecule>
COc1ccc(/C=C/c2cc(/C=C/c3ccc(OC)cc3)nc(/C=C/c3ccc(N(c4ccccc4)c4ccccc4)cc3)n2)cc1

>  <display-unit>
nm

>  <absorption maximum>
376

$$$$
>  <molecule>
C(#Cc1c(C#Cc2cccs2)c(C#Cc2cccs2)c(C#Cc2cccs2)c(C#Cc2cccs2)c1C#Cc1cccs1)c1cccs1

>  <display-unit>
nm

>  <absorption maximum>
371

$$$$
>  <molecule>
CCCSc1ccc2n1[B-](F)(F)[N+]1=C(SC#N)C=CC1=C2c1ccccc1

>  <display-unit>
nm

>  <absorption maximum>
552

$$$$
>  <molecule>
CC(C)(C)c1ccc2c(c1)c1cc(C(C)(C)C)ccc1n2-c1ccc(-c2ccc3c(c2)C2(c4cc(-c5ccc(-n6c7ccc(C(C)(C)C)cc7c7cc(C(C)(C)C)ccc76)cc5)ccc4-3)c3ccccc3S(=O)(=O)c3ccccc32)cc1

>  <display-unit>
nm

>  <absorption maximum>
353

$$$$
>  <molecule>
N#Cc1ccc(N2c3c(sc4ccccc34)Sc3sc4ccccc4c32)cc1

>  <display-unit>
nm

>  <absorption maximum>
309

$$$$
>  <molecule>
Cc1cc(O)c(C(=O)/C=C/c2ccc(O)c(O)c2)c(=O)o1

>  <display-unit>
nm

>  <absorption maximum>
387

$$$$
>  <molecule>
COC(=O)C(Cc1ccc2oc(-c3ccc(N(c4ccccc4)c4ccccc4)cc3)nc2c1)NC(=O)OC(C)(C)C (stereo unspecified)

>  <display-unit>
nm

>  <absorption maximum>
366.18

$$$$
>  <molecule>
N#CC(C#N)=Cc1ccc(-c2ccc(-c3nc4ccccc4s3)c(O)c2)o1

>  <display-unit>
nm

>  <absorption maximum>
426

$$$$
>  <molecule>
c1ccc(-n2c3ccccc3c3cc([Si](c4ccccc4)(c4ccccc4)c4ccc5c(c4)c4ccccc4n5-c4ccccc4)ccc32)cc1

>  <display-unit>
nm

>  <absorption maximum>
342

$$$$
>  <molecule>
COc1ccc(C2=CC3=C(c4c(C)cc(C)cc4C)c4cc(-c5ccc(OC)cc5)c(-c5ccc(OC)cc5)n4[B-](F)(F)[N+]3=C2c2ccc(OC)cc2)cc1

>  <display-unit>
nm

>  <absorption maximum>
616

$$$$
>  <molecule>
CCN(CC)c1ccc2cc(C#N)/c(=N\C(=O)c3ccc(C)cc3)oc2c1

>  <display-unit>
nm

>  <absorption maximum>
436

$$$$
>  <molecule>
CCn1c2ccccc2c2cc(-c3cc(-c4ccc5c(c4)c4ccccc4n5CC)nc(SC)n3)ccc21

>  <display-unit>
nm

>  <absorption maximum>
370

$$$$
>  <molecule>
CCC1=C(C)C2=Cc3c4ccccc4c4n3[B-](c3ccc5ccc6cccc7ccc3c5c67)(Oc3ccccc3-4)[N+]2=C1C (stereo unspecified)

>  <display-unit>
nm

>  <absorption maximum>
628

$$$$

====

# method: solvent given as SMILES
# experimental-conditions: in CCCCCC
# maps each entry to its absorption maximum
endpoint: absorption maximum (nm)

>  <molecule>
CN(C)c1ccc(/C=C/C=C2\CC/C(=C\C=C\c3ccc(N(C)C)cc3)C2=O)cc1

>  <endpoint>
absorption maximum

>  <display-unit>
nm

>  <meas-value>
478

$$$$
>  <molecule>
N#Cc1ccc(N/N=C/c2ccc3ccccc3c2O)cc1

>  <endpoint>
absorption maximum

>  <display-unit>
nm

>  <meas-value>
384

$$$$
>  <molecule>
O=C1c2cccc3c(NCc4ccccn4)c4ccccc4c(c23)C(=O)N1Cc1ccccn1

>  <endpoint>
absorption maximum

>  <display-unit>
nm

>  <meas-value>
497

$$$$
>  <molecule>
CC1=CC(C)=[N+]2C1=C(c1c3ccccc3c(-c3ccccc3)c3ccccc13)c1c(C)cc(C)n1[B-]2(F)F

>  <endpoint>
absorption maximum

>  <display-unit>
nm

>  <meas-value>
505

$$$$
>  <molecule>
O=c1c2cc(-n3c4ccccc4c4ccccc43)ccc2sc2ccc(-n3c4ccccc4c4ccccc43)cc12

>  <endpoint>
absorption maximum

>  <display-unit>
nm

>  <meas-value>
408

$$$$
>  <molecule>
O=c1oc2c(ccc3ccccc32)nc1-c1ccccc1

>  <endpoint>
absorption maximum

>  <display-unit>
nm

>  <meas-value>
398

$$$$
>  <molecule>
Cc1cccc2[n+]1[B-](F)(F)n1c(c3cccc4cccc1c43)=N2

>  <endpoint>
absorption maximum

>  <display-unit>
nm

>  <meas-value>
464

$$$$
>  <molecule>
CCC1=C(C)C2=Cc3c4ccccc4c4n3[B-](c3ccc5ccc6cccc7ccc3c5c67)(Oc3ccccc3-4)[N+]2=C1C (centres undefined)

>  <endpoint>
absorption maximum

>  <display-unit>
nm

>  <meas-value>
627

$$$$
>  <molecule>
F[B-]1(F)n2c(c3cccc4cccc2c43)=Nc2cccc(Cl)[n+]21

>  <endpoint>
absorption maximum

>  <display-unit>
nm

>  <meas-value>
481

$$$$

====

# method: solvent given as SMILES
# experimental-conditions: in ClC(Cl)Cl
// bucketize absorption maximum: lower range = under 400 nm, middle range = from 400 nm up to 500 nm, upper range = 500 nm and over

>  <compound-smiles>
COc1ccc(-c2nc(-c3ccc(C)cc3)c3ccccn23)cc1

>  <qualitative-label>
lower range

$$$$
>  <compound-smiles>
CCCCCCCCC1(CCCCCCCC)c2cc(-c3ccc(C(F)(F)F)cc3)ccc2-c2ccc(N(c3ccc(-n4c5ccccc5c5ccccc54)cc3)c3ccc4c(c3)C(CCCCCCCC)(CCCCCCCC)c3cc(-c5ccc(C(F)(F)F)cc5)ccc3-4)cc21

>  <qualitative-label>
lower range

$$$$
>  <compound-smiles>
CCCCCCCCN1C(=O)c2ccc3c4c(-c5ccc(-n6c7ccccc7c7ccccc76)cc5)cc5c6c(ccc(c7c(-c8ccc(-n9c%10ccccc%10c%10ccccc%109)cc8)cc(c2c37)C1=O)c64)C(=O)N(CCCCCCCC)C5=O

>  <qualitative-label>
upper range

$$$$
>  <compound-smiles>
O=Cc1ccc(Oc2ccc3c4c(cccc24)C(=O)N(CCO)C3=O)cc1

>  <qualitative-label>
lower range

$$$$
>  <compound-smiles>
COC1=[N+]2C(=C(c3ccc(C)cc3)c3ccc(OC)n3[B-]2(F)F)C=C1

>  <qualitative-label>
upper range

$$$$
>  <compound-smiles>
COc1ccc(N(c2ccc(OC)cc2)c2ccc(-c3ccc(C=C(C#N)C#N)o3)cc2)cc1

>  <qualitative-label>
upper range

$$$$
>  <compound-smiles>
CCN(CC)c1ccc(/C=C/C2=[O+][B-](F)(F)Oc3c2c(=O)oc2cc(N(CC)CC)ccc32)cc1

>  <qualitative-label>
upper range

$$$$
>  <compound-smiles>
CCOc1cc2c(cc1/C=C/C(=C(C#N)C#N)c1ccccc1)c1ccccc1n2CC

>  <qualitative-label>
middle range

$$$$
>  <compound-smiles>
CCCCC1(CCCC)c2ccccc2-c2ccc(-c3c4c(nc5ccccc35)-c3cc5c(cc3CC4)-c3nc4ccccc4c(-c4ccc6c(c4)C(CCCC)(CCCC)c4ccccc4-6)c3CC5)cc21

>  <qualitative-label>
lower range

$$$$
>  <compound-smiles>
Cc1ccc(-n2c3ccccc3c3cc(-c4ccc5[n+](c4)[B-](F)(F)n4c-5nc5c6ccccc6c6ccccc6c54)ccc32)cc1

>  <qualitative-label>
middle range

$$$$
